- Target under test: NOD2 in native membrane vesicles (Homo sapiens, UniProt Q9HC29)
- Sequence (Q9HC29 whole entry): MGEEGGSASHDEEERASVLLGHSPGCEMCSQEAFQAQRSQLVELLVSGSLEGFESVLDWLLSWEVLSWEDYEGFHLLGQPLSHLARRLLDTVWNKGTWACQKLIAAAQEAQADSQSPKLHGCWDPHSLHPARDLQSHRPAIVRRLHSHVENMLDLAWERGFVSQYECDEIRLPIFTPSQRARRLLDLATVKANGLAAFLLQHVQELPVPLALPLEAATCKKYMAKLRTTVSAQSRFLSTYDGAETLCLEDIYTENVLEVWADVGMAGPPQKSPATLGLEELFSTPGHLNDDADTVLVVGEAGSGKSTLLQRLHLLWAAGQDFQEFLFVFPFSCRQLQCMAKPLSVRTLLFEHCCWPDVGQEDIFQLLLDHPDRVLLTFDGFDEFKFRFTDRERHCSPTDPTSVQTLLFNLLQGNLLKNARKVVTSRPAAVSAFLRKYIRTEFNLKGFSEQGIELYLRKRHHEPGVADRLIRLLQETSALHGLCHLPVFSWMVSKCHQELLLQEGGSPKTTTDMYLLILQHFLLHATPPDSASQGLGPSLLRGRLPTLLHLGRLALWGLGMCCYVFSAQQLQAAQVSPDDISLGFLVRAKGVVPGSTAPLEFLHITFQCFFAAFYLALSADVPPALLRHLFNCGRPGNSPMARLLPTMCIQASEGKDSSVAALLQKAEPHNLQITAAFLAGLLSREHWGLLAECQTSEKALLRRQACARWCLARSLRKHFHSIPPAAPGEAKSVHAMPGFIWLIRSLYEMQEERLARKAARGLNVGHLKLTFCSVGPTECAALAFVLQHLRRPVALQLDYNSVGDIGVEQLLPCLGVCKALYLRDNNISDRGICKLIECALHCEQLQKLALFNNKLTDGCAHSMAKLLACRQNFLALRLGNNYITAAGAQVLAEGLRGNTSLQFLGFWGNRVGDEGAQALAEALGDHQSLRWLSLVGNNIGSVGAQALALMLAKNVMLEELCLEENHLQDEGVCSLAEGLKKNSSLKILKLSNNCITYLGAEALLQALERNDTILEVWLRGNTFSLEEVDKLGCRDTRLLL
- Format: binding
- Test parameters: BSI, native-membrane vesicles
Observation type: binding to NOD2 in the native-membrane environment (in words)

>>> result("CC(=O)N[C@@H]1[C@@H](O[C@H](C)C(=O)N[C@@H](C)C(=O)N[C@H](CCC(=O)O)C(N)=O)[C@H](O)[C@@H](CN)O[C@@H]1O")
"bind with high affinity"
>>> result("CC(=O)N[C@@H]1[C@@H](O[C@H](C)C(=O)N[C@@H](C)C(=O)N[C@@H](CCC(=O)O)C(N)=O)[C@H](O)[C@@H](CN)O[C@@H]1O")
"bind with high affinity"
